Taken from paper doi:10.1101/2022.12.25.521909v1.

- target_system: human ABCC4 (ABCC4/MRP4) (Homo sapiens, UniProt O15439)
- Sequence (O15439 whole entry): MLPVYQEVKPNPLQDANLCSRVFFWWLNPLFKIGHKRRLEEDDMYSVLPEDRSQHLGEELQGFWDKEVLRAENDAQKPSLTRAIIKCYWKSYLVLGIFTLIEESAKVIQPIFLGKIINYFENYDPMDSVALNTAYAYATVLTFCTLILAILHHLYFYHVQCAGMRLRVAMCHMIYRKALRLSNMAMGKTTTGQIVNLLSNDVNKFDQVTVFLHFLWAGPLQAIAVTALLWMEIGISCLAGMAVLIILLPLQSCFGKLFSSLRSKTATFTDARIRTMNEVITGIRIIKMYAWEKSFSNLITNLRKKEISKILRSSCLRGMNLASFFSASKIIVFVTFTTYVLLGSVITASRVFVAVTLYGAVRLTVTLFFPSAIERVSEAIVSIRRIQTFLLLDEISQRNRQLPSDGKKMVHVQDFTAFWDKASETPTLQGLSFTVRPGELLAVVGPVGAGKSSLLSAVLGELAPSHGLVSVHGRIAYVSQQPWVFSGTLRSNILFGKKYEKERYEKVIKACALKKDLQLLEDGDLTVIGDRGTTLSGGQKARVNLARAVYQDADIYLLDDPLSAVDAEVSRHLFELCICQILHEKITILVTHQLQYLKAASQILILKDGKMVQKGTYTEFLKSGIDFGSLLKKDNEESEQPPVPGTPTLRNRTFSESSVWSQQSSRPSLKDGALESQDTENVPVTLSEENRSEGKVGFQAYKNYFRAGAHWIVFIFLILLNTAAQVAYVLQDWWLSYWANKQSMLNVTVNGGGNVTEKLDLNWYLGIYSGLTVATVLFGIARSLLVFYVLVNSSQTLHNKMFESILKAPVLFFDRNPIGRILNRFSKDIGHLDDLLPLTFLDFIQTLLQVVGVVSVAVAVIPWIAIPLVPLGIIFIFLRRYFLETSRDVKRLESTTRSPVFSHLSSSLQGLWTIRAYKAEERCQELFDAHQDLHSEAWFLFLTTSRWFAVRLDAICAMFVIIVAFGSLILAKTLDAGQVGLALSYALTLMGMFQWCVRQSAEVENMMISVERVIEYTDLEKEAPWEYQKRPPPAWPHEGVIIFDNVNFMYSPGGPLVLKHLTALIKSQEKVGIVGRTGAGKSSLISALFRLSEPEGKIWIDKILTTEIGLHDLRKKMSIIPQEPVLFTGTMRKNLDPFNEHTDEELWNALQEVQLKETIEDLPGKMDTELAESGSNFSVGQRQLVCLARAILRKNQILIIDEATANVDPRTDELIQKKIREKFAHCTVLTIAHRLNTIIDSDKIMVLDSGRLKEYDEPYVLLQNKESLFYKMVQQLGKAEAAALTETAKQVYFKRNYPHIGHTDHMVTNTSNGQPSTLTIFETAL
- test_method_notes: inhibition of basal ATPase activity, ABCC4 in lipid nanodiscs, logistic fit
pIC50: −log10 of the molar value.

compound: OCCN(CCO)c1nc(N2CCCCC2)c2nc(N(CCO)CCO)nc(N3CCCCC3)c2n1 [dipyridamole]
pIC50: ~5.68
